Data credit: ChEMBL document CHEMBL1201862

- assayed_target: Calpain-2 catalytic subunit (Sus scrofa, UniProt P43367)
- Sequence (P43367 whole entry): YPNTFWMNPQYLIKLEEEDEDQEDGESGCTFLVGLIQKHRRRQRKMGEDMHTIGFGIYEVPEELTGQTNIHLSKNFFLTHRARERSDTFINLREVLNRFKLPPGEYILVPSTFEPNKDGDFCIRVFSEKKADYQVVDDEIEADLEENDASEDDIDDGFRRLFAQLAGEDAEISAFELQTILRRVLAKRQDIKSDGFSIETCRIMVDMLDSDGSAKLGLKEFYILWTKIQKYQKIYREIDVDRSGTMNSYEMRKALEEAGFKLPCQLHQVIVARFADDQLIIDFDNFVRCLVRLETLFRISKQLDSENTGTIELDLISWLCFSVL
- protocol: m-calpain protease blockers, concentration series – biochemical, fluorogenic peptide substrate, dose response (AID 1420)
- Format: functional
Calls of active or inactive are those of the source.
IC50 for assorted compounds

As a guide, the following entries are already answered.
> print(dat)
                                   compound                            assayed.target              obs.value
1       Cc1cc2c(C)ccc(C)c2nc1SCC(=O)c1cccs1  Calpain-2 catalytic subunit (Sus scrofa, UniProt P43367)  < 0.4 µM (not active)
2  O=C1c2cccc3cccc(c23)C(=O)N1CCCN1CCN(c2ccc(F)cc2)CC1  Calpain-2 catalytic subunit (Sus scrofa, UniProt P43367)   8.84 µM (not active)
3  COc1cccc(CNc2ccc(F)c([N+](=O)[O-])c2)c1O  Calpain-2 catalytic subunit (Sus scrofa, UniProt P43367)       7.78 µM (active)
4   CC(C)(C)c1nc(SCC(=O)c2ccccc2)c2ccccc2n1  Calpain-2 catalytic subunit (Sus scrofa, UniProt P43367)   > 50 µM (not active)
5  CCCCCCCNC1=CC(=O)CC(c2ccccc2)C1 (stereo not drawn)  Calpain-2 catalytic subunit (Sus scrofa, UniProt P43367)   9.58 µM (not active)

Input: Consider the compound `Cc1cc(NC(=O)CSc2nc3sc4c(c3c(=O)n2C)CCCC4)no1` and give its measured IC50.
Output: 25.2 µM (not active)

Input: Same thing, different compound: `COc1cc(/C=C2\SC(=S)NC2=O)ccc1OS(=O)(=O)c1ccccc1`
Output: 11.1 µM (not active)

Input: Same thing, different compound: `CCCCn1c(S)nnc1-c1csc(CCC)c1`
Output: 24.1 µM (not active)

* * *

- assayed_target: Kappa-type opioid receptor (Homo sapiens)
- Sequence (P41145 whole entry): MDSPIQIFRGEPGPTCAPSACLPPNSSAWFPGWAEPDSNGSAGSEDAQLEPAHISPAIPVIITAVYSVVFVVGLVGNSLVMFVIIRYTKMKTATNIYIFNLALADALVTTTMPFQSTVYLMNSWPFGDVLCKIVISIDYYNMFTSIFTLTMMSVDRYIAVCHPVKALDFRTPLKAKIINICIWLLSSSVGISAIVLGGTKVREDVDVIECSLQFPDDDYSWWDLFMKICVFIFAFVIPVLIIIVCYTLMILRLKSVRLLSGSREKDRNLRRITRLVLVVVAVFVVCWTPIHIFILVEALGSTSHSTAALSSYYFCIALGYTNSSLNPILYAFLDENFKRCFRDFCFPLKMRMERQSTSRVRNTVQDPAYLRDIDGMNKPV
- Format: functional
experimental_readout: IC50

Input: Consider the molecule `COc1cccc2sc(Nc3nc(-c4ccccn4)cs3)nc12` and give its measured IC50.
Output: > 32 µM

* * *

- assayed_target: RNA-binding protein pos-1 (Caenorhabditis elegans, UniProt G5EF15)
- Sequence (G5EF15 whole entry, the tested form may be a part): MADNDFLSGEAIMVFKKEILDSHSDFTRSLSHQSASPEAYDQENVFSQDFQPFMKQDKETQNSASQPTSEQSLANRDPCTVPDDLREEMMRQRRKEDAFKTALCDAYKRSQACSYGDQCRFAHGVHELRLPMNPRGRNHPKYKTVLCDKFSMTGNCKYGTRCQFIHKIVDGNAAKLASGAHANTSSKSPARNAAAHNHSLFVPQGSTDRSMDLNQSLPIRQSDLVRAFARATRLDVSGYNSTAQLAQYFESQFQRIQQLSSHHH
- protocol: disruptors of C. elegans POS-1 RNA interaction – biochemical, fluorescence polarization, dose response (AID 1964);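 further: purified POS-1 fused to maltose binding protein made in E. coli; potency of compounds blocking POS-1 binding to fluorescent RNA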
Activity calls are given as the source filed them.
EC50 for assorted compounds

As a guide, the following entries are already answered.
> print(dat)
                                    compound               obs.value
 1  O=[N+]([O-])c1ccccc1S(=O)(=O)n1nnc2ccccc21   > 300 µM (not active)
 2  COc1cc(C2C(C#N)=C(N)OC3=C2C(=O)CCC3)c([N+](=O)[O-])cc1OC (configuration not stated)        15.8 µM (active)
 3     CC1=CC(=C2N=C(c3ccccc3)OC2=O)C=C(C)O1   142 µM (inconclusive)
 4  COC/C=C/C1=CC2=CC(=O)C(C)(OC(=O)c3cccs3)C(=O)C2=CO1 (configuration not stated)   > 300 µM (not active)
 5     COC(=O)c1ccc(C)c(-n2c(C)cc(C=O)c2C)c1   > 300 µM (not active)
 6      Cc1ccc(-c2ccccc2)n1-c1cccc(C(=O)O)c1         109 µM (active)
 7  COc1cc2c3nnc(-c4ccc(F)cc4)c-3cn(Cc3ccc(C)cc3)c2cc1OC   2.2 µM (inconclusive)
 8      Cn1cc(C=C2C(=O)NC(=O)NC2=O)c2ccccc21  6.99 µM (inconclusive)
 9  CC(C)c1ccc(C2C(C#N)=C(N)N3C(=C2C#N)Sc2ccccc23)cc1 (configuration not stated)    33 µM (inconclusive)
10  N#CC(c1nc2ccccc2nc1OCCO)S(=O)(=O)c1ccccc1 (configuration not stated)   > 300 µM (not active)

Input: Consider the compound CCCn1c(O)c(C#N)c(C)c(CN2CCCC(C)C2)c1=O (configuration not stated) and give its measured EC50.
Output: > 300 µM (inconclusive)

Input: Same thing, different compound: COc1cc(C2C(C#N)=C(N)OC3=C2C(=O)CCC3)ccc1OC(=O)N1CCOCC1 (configuration not stated)
Output: > 300 µM (not active)

Input: Same thing, different compound: `Oc1ccc(-c2cnns2)c(O)c1`
Output: 45.5 µM (active)

Input: Same thing, different compound: CCOC(=O)[C@@]1(C#N)C(c2ccc(Cl)c(Cl)c2)[C@H](C(N)=O)N2C=C(C(C)=O)C=C[C@H]21 (some centres not stated)
Output: 55.7 µM (inconclusive)

Input: Same thing, different compound: `CN(C)CCCN(C(=O)/C=C/c1cccs1)c1nc2ccc(F)cc2s1`
Output: > 300 µM (not active)

Input: Same thing, different compound: `CC(C)OC(=O)CC(=O)c1sc2nc3c(cc2c1N)CN(C)CC3`
Output: > 300 µM (not active)

Input: Same thing, different compound: `COc1ccc(CNC(=O)COC(=O)c2cc(-c3ccc(Cl)s3)nc3ccccc23)cc1`
Output: 92.1 µM (active)
